Test: JC-1 mitochondrial signal, unstimulated myeloma cells – cell-based, JC-1 fluorescence, RPMI8226, 24 h, 100 nL compound, profiling panel (AID 1169); note: test concentration not given here
Conditions: JC-1 mitochondrial potential fluorescence, higher = more signal
Our labelling divides records by z-score into ranges: I: < -0.9; II: ≥ -0.9 and < -0.3; III: ≥ -0.3

Lookup: Entry COC(=O)[C@@]1(Cc2ccc(OC)cc2)[C@H]2c3cc(C(=O)N4CCCC4)n(Cc4ccc(C(F)(F)F)nc4)c3C[C@H]2CN1C(=O)c1ccccc1 belongs to which category?
Found: II

Lookup: Entry COC(=O)[C@@]1(Cc2ccc(OC)cc2)[C@H]2c3cc(C(=O)N4CCCC4)n(CCn4cc([N+](=O)[O-])nc4C)c3C[C@H]2CN1C(=O)c1ccccc1 belongs to which category?
Found: III

Lookup: Entry C=CCN1C(=O)[C@]2(O[C@H](CCn3cc([C@H](O)c4ccccc4)nn3)[C@@H]([Si](C)(C)c3ccc(OC)cc3)[C@@H]2C)c2cc(NC(=O)c3ccc(OC)cc3)ccc21 belongs to which category?
Found: I

Lookup: Entry C=CCNC(=O)[C@H]1[C@@H]2C(=O)O[C@@H](c3ccccc3)[C@@H](c3ccccc3)N2[C@@H](c2ccccc2OCCO)[C@]12C(=O)N(C(=O)OCCOC)c1ccc(C#Cc3ccc(OC)cc3)cc12 belongs to which category?
Found: I

Lookup: Entry C[N+](C)(C)CCCC[C@@H]1NC(=O)[C@H]2C[C@@H](C(=O)NCCCCCNC(=O)CS)[C@@H](c3cccc(OCCO)c3)N2C1=O belongs to which category?
Found: III

Lookup: Entry COc1ccccc1CN1C(=O)c2ccccc2[C@](Cc2ccccc2I)(C(=O)NCC(C)C)[C@@H]1c1ccc(CO)cc1 belongs to which category?
Found: II

Lookup: Entry COCCOC(=O)N1C(=O)[C@@]2(c3cc(C#CCC(C(=O)OC)C(=O)OC)ccc31)[C@H](C(=O)Nc1nc3ccccc3s1)[C@H]1C(=O)O[C@H](c3ccccc3)[C@H](c3ccccc3)N1[C@@H]2c1ccc(OCCO)cc1 belongs to which category?
Found: II

Lookup: Entry COCCCNC(=O)[C@@]1(Sc2ccc(C)cc2)CC(=O)N(Cc2ccccc2C(F)(F)F)[C@@H]1c1ccc(CO)cc1I belongs to which category?
Found: II

Lookup: Entry O=C1[C@@H]2[C@@H](CC(COc3ccccc3)=C([C@H](O)CCc3ccccc3)[C@@H]2CO)C(=O)N1Cc1ccccc1 belongs to which category?
Found: I

Lookup: Entry COc1cc(C(O)C2C=CC3C(=O)N(c4ccccc4)C(=O)C3N2Nc2ccccc2)cc(OC)c1OC (centres undefined) belongs to which category?
Found: I

Lookup: Entry COc1ccc(C(O)C2C=CC3C(=O)N(C)C(=O)C3N2N(c2ccccc2)c2ccccc2)cc1 (centres undefined) belongs to which category?
Found: II

Lookup: Entry NC(=O)NCC#Cc1ccc2c(c1)[C@]1(C(=O)N2)[C@H](c2ccc(OCCO)cc2)N2[C@H](c3ccccc3)[C@H](c3ccccc3)OC(=O)[C@H]2[C@@H]1C(=O)O belongs to which category?
Found: III

Lookup: Entry CC1=C([C@H](O)CCc2ccccc2)[C@H](CO)n2c(=O)n(-c3ccccc3)c(=O)n2C1 belongs to which category?
Found: III

---

Assay: Pseudomonas biofilm growth suppression – PAO1 strain, BacTiter-Glo luminescence, LB-PBS, primary screen (AID 1144)
Conditions: P. aeruginosa PAO1 biofilm, 12 h, higher = more signal
# if value of z-score reaches 0.3, tag Fulfilled; if it stays below, tag Not fulfilled

Lookup: Check this molecule for z-score at or above 0.3: CC1CC/C=C\[C@H]2OC34C=CCN(c5ccc6ccccc6c5)C(=O)[C@H]3N(C(C)CO)C(=O)[C@@H]4C2C(=O)O1 (stereo partly drawn)
Found: Not fulfilled

Lookup: Check this molecule for z-score at or above 0.3: COC(=O)[C@]1(CCC(=O)OC(C)(C)C)N=C(c2ccc(OCCCO)cc2)O[C@@H]1c1ccccc1N=[N+]=[N-]
Found: Not fulfilled

Lookup: Check this molecule for z-score at or above 0.3: COCCn1c(C(=O)N(C)C)cc2c1C[C@H]1CN(C(=O)c3ccccc3)[C@@](Cc3ccc(OC)cc3)(C(=O)OC)[C@@H]21
Found: Fulfilled

Lookup: Check this molecule for z-score at or above 0.3: CCCC[C@H]1C[C@@H]1[C@@H]1N(C(C)=O)[C@H](c2cccc(OC)c2)CC12CC2
Found: Fulfilled

Lookup: Check this molecule for z-score at or above 0.3: COc1ccc([Si](C)(C)[C@@H]2[C@@H](CC(=O)N3CCC[C@H]3CO)O[C@]3(C(=O)N(Cc4ccc(N5CCOC5=O)cc4)c4ccccc43)[C@H]2C)cc1
Found: Not fulfilled

Lookup: Check this molecule for z-score at or above 0.3: COC(=O)[C@@]1(Cc2ccc(F)cc2)[C@H]2c3cc(C(=O)N(C)C)n(C)c3C[C@H]2CN1C(=O)c1ccccc1
Found: Not fulfilled

Lookup: Check this molecule for z-score at or above 0.3: CC(C)N1C(=O)C[C@@](C(=O)NCCN2CCOCC2)(c2ccc([N+](=O)[O-])cc2)[C@H]1c1ccc(CO)cc1
Found: Not fulfilled

Lookup: Check this molecule for z-score at or above 0.3: COCCOC(=O)N1C(=O)[C@@]2(c3cc(C#CCC(C(=O)OC)C(=O)OC)ccc31)[C@H](c1ccc(O)cc1)N1[C@H](c3ccccc3)[C@H](c3ccccc3)OC(=O)[C@H]1[C@@H]2C(=O)Nc1nc2ccccc2s1
Found: Not fulfilled

Lookup: Check this molecule for z-score at or above 0.3: COc1ccc(C(=O)Nc2ccc3c(c2)[C@@]2(O[C@H](CCO)[C@@H]([Si](C)(C)c4ccc(OC)cc4)[C@@H]2C)C(=O)N3Cc2ccccc2)cc1
Found: Not fulfilled

Lookup: Check this molecule for z-score at or above 0.3: CCCCC(O)C1C=CC2C(=O)N(c3ccccc3)C(=O)C2N1Nc1ccc([N+](=O)[O-])cc1 (stereo not drawn)
Found: Not fulfilled

Lookup: Check this molecule for z-score at or above 0.3: COC(=O)c1cccc([C@H]2OC(=CC(=O)OC(C)C)C[C@@H](c3cccc(C(=O)OC)c3)O2)c1
Found: Not fulfilled

Lookup: Check this molecule for z-score at or above 0.3: NC(=O)N1C(=O)C2C(C1=O)C1C=C(CCCO)C2C(c2ccc(CN3CCCC3)cc2)N1Cc1sc2ccccc2c1Cl (stereo not drawn)
Found: Fulfilled

Lookup: Check this molecule for z-score at or above 0.3: CCCCC(=C=CC[C@H](O)c1ccc(CO)o1)CCO
Found: Not fulfilled

Lookup: Check this molecule for z-score at or above 0.3: COc1ccc([Si](C)(C)[C@H]2[C@H](CC(=O)N3Cc4ccccc4C[C@H]3CO)O[C@@]3(C(=O)N(C)c4c(Br)cc(C)cc43)[C@@H]2C)cc1
Found: Not fulfilled

Lookup: Check this molecule for z-score at or above 0.3: O=C1C[C@@](C(=O)NC2CC2)(c2ccc([N+](=O)[O-])cc2)[C@@H](c2ccc(CO)cc2)N1C1CCCCC1
Found: Not fulfilled

Lookup: Check this molecule for z-score at or above 0.3: COCCCNC(=O)[C@@H]1c2ccccc2C(=O)N(Cc2ccc(OC(F)(F)F)cc2)[C@H]1c1ccc(CO)cc1
Found: Not fulfilled

Lookup: Check this molecule for z-score at or above 0.3: COc1ccc(C(O)C2C=CC3C(=O)N(c4ccccc4)C(=O)C3N2Nc2ccc(C#N)cc2)cc1OCc1ccccc1 (stereo not drawn)
Found: Not fulfilled

Lookup: Check this molecule for z-score at or above 0.3: COC(=O)[C@@]1(Cc2ccc(F)cc2)[C@H]2c3cc(C(=O)N4CCCC4)n(Cc4ccccn4)c3C[C@H]2CN1C(=O)c1ccccc1
Found: Not fulfilled

Lookup: Check this molecule for z-score at or above 0.3: COC(=O)[C@H](Cc1ccccc1)N1CC2=CCCC=C[C@@H]2[C@H]1[C@H](O)Cc1ccccc1
Found: Fulfilled

Lookup: Check this molecule for z-score at or above 0.3: [N-]=[N+]=Nc1ccccc1C[C@@]1(C(=O)NCC(O)CO)N=C(c2ccc(OCCCO)cc2)O[C@@H]1c1ccccc1 (stereo partly drawn)
Found: Fulfilled

Lookup: Check this molecule for z-score at or above 0.3: C=CCC(OC(C)=O)[C@@H]1[C@@H](N(Cc2cccc3ccccc23)C(=O)Cc2ccc(OC)cc2)c2cc(OCCCO)ccc2N1C(=O)Cc1ccc2ccccc2c1 (stereo partly drawn)
Found: Not fulfilled

Lookup: Check this molecule for z-score at or above 0.3: COCCOC(=O)N1C(=O)[C@@]2(c3cc(C#CCC(C(=O)OC)C(=O)OC)ccc31)[C@H](C(=O)Nc1nc3ccccc3s1)[C@H]1C(=O)O[C@H](c3ccccc3)[C@H](c3ccccc3)N1[C@@H]2c1ccc(OCCO)cc1
Found: Not fulfilled

Lookup: Check this molecule for z-score at or above 0.3: CCOC(=O)C1=C[C@@H](C(C)(C)C)N(S(=O)(=O)c2ccc(C)cc2)[C@H]1c1ccc(C#N)cc1
Found: Not fulfilled

Lookup: Check this molecule for z-score at or above 0.3: COc1ccc([Si](C)(C)[C@@H]2[C@@H](CC(=O)N3Cc4ccccc4C[C@H]3CO)O[C@]3(C(=O)N(Cc4cccc(N5CCOC5=O)c4)c4ccccc43)[C@H]2C)cc1
Found: Not fulfilled

Lookup: Check this molecule for z-score at or above 0.3: C[N+](C)(C)CCCCNC(=O)[C@H]1C[C@H]2C(=O)N[C@@H](Cc3ccccc3)C(=O)N2[C@H]1c1cccc(OCCO)c1
Found: Not fulfilled

Lookup: Check this molecule for z-score at or above 0.3: C=C(CCCC)/C(=C/C[C@H](OC(=O)c1ccncc1)c1ccccc1OCCO)c1cc(C(=O)OC)ccc1OC
Found: Not fulfilled

Lookup: Check this molecule for z-score at or above 0.3: CC(C)N1C(=O)c2ccccc2[C@](C)(C(=O)NCC(F)(F)F)[C@@H]1c1ccc(CO)cc1
Found: Fulfilled
